Test system: HCT-116
experimentalProtocol: NCI tumour cell line growth inhibition, 48 h
Activity calls are given as the source filed them. No stated cut-off is given here; in the data, active = GI50 up to about 1.1 µM and inactive = higher.
measurementName: GI50

compound	GI50
O=[N+]([O-])c1cccc(-c2ccc([C@H]3CC(c4ccc(Cl)cc4)=NN3)o2)c1	15.2 µM (inactive)

Any idea what GI50 came out for CCC(C)N1CN(c2ccccc2)C2(CCN(CCCC3(c4ccc(F)cc4)OCCO3)CC2)C1=O (stereo unspecified) on HCT-116?
11.9 µM (inactive)

Any idea what GI50 came out for "O=[PH](O)c1cc2c3ccccc3ccc2c2ccccc12" on HCT-116?
> 100 µM (inactive)

Any idea what GI50 came out for "CN(C)CCCNC(=O)CNC(=O)c1cc(NC(=O)c2cc(NC(=O)c3cc(NC(=O)CCNC(=O)c4cc(NC(=O)c5cc(NC(=O)c6nccn6C)cn5C)cn4C)cn3C)cn2C)cn1C" on HCT-116?
> 100 µM (inactive)

Any idea what GI50 came out for "CC(C)=CCC/C(C)=C\CC/C(C)=C/CO" on HCT-116?
19.8 µM (inactive)

Any idea what GI50 came out for CCOC(=O)C1(C/C=C(/C)Cl)CCCC1=O (stereo unspecified) on HCT-116?
> 100 µM (inactive)

Any idea what GI50 came out for "COC(=O)N/N=C(\c1ccccc1)c1ccc(OC)cc1" on HCT-116?
> 100 µM (inactive)

Any idea what GI50 came out for "CC1=NN(c2nc(N)nc(-c3ccccc3S(N)(=O)=O)n2)C(C)(C)C1" on HCT-116?
10.2 µM (inactive)

Any idea what GI50 came out for "COCCCNc1nc(N)c(C#N)c(C#N)c1C#N" on HCT-116?
> 10 µM (inactive)

Any idea what GI50 came out for "O=C(N/N=C/c1cc(Br)cc(Br)c1O)c1ccccc1O" on HCT-116?
1.82 µM (inactive)

Any idea what GI50 came out for CCCCCCCCC[C@@H]1CC(=O)OCC2OC(O[C@H](CCCCCCCCC)CC(=O)OCC3OC(O[C@H](CCCCCCCCC)CC(=O)OCC4OC(O1)C(O)C(O)C4O)C(O)C(O)C3O)C(O)C(O)C2O (stereo partly specified) on HCT-116?
8.18 µM (inactive)

Any idea what GI50 came out for Cc1ccc(S(=O)(=O)NC2C(=O)c3ccccc3C(=O)C2n2ccnc2)cc1 (stereo unspecified) on HCT-116?
20.4 µM (inactive)

Any idea what GI50 came out for CC(C)(C)O/C=C1/C(=O)OC2C[C@@H](O[Si](C)(C)C(C)(C)C)CC12 (stereo partly specified) on HCT-116?
37.1 µM (inactive)

Any idea what GI50 came out for "CC(=O)O/N=C1\C=Cc2c(no[n+]2[O-])C1=O" on HCT-116?
14.3 µM (inactive)

Any idea what GI50 came out for "Oc1ccc(Cc2nccc3cc(O)c(O)cc23)cc1O" on HCT-116?
17.7 µM (inactive)

Any idea what GI50 came out for "O=[N+]([O-])c1ccc2c(c1)Cc1cc(/N=C/c3ccc4c(c3)OCO4)ccc1-2" on HCT-116?
> 100 µM (inactive)

Any idea what GI50 came out for CC1(C)C2CCC1C(=O)C(C=O)C2 (stereo unspecified) on HCT-116?
> 100 µM (inactive)

Any idea what GI50 came out for "N#CCCN(CCN(CCN(C(=O)Nc1ccccc1)c1ccccc1)C(=O)Nc1ccccc1)C(=O)Nc1ccccc1" on HCT-116?
> 100 µM (inactive)

Any idea what GI50 came out for CCOC(=O)CC(C)C1(C=O)CCCCC1=O (stereo unspecified) on HCT-116?
> 100 µM (inactive)

Any idea what GI50 came out for COc1cc2nc3n(c2cc1OC)C(O)c1c(Cl)nc(SC)nc1S3 (stereo unspecified) on HCT-116?
2.46 µM (inactive)

Any idea what GI50 came out for Cc1cn(C2CC(N)C(C(=O)NCC(=O)O)O2)c(=O)[nH]c1=O (stereo unspecified) on HCT-116?
> 100 µM (inactive)

* * *

Tested on: KM12
experimentalProtocol: NCI tumour cell line growth inhibition, 48 h
Activity calls are given as the source filed them. No stated cut-off is given here; in the data, active = GI50 up to about 1.1 µM and inactive = higher.
GI50 values for the compounds below.

Observe how each entry below is paired with its result.
compound	target	GI50
O=C(/C=C/c1ccco1)c1ccc(NCc2nc3ccccc3[nH]2)cc1	KM12	10.3 µM (inactive)
C=C1[C@H](OC(C)=O)[C@H]2[C@@H](OC(C)=O)[C@@H](C)C[C@]2(C)C(=O)[C@H](C)/C=C/C(C)(C)C(=O)[C@H](OCC(C)C)[C@H]1OC(C)=O	KM12	> 25 µM (inactive)
Nc1ccc2nc3n(c2c1)C(=O)c1ccccc1-3	KM12	> 100 µM (inactive)
O=c1[nH]c2cc3cccnc3c(Cl)c2nc1C(F)(F)F	KM12	21 µM (inactive)
COC(=O)C1=NC(=S)NC(c2ccccc2)C1c1nc2ccccc2s1 (stereo not given)	KM12	> 100 µM (inactive)

Please give the measured GI50 for this compound: "CC(=O)Nc1ccc(-c2cc(C(=O)O)c3cc4ccccc4cc3n2)cc1"
> 100 µM (inactive)

Please give the measured GI50 for this compound: Cc1cc(OC2OC(CO)C(O)C(O)C2O)ccc1O (stereo not given)
> 100 µM (inactive)

Please give the measured GI50 for this compound: O=C(O)CCC(C(=O)O)N1C(=O)c2ccccc2C1=O (stereo not given)
> 100 µM (inactive)

Please give the measured GI50 for this compound: "CCOP(=O)(OCC)/C(C#N)=C/c1cccn1CC(C)C"
89.9 µM (inactive)

Please give the measured GI50 for this compound: "Cn1c(=O)[nH]c2nccnc2c1=O"
> 10 µM (inactive)

* * *

System: Hs-578T
experimentalProtocol: NCI tumour cell line growth inhibition, 48 h
Calls of active or inactive are those of the source. Rule as the data show it: active = GI50 up to about 1.1 µM and inactive = higher.
Select the matching outcome among active, inactive

Answered cases to consult:
molecule	group
CC12CC1C(c1cccc([N+](=O)[O-])c1)(c1cccc([N+](=O)[O-])c1)N=N2 (stereo not drawn)	inactive
NNC(=S)N/N=C(/C(=O)Nc1ccc(Cl)c(Cl)c1)C(C1OC(=O)c2ccccc21)[N+](=O)[O-] (stereo not drawn)	inactive
Cc1cc2c(cc1Cl)SC(N/N=C(\N)c1ccc(Cl)cc1)=NS2(=O)=O	inactive

How did this test come out for "O=[N+]([O-])c1cccc(-c2ccc([C@H]3CC(c4ccc(Cl)cc4)=NN3)o2)c1" ?
inactive

How did this test come out for "CO[C@@H]1C[C@H](OC(N)=O)[C@@H]2C=C[C@@H]3/C=C(C)/C=C/[C@@H](C)[C@H]([C@H](C)[C@H](O)[C@@H](C)NC(C)=O)OC(=O)/C=C/C=C(C)\C=C\[C@]3(C)[C@@H]2C1" ?
active

How did this test come out for "CCOC(=O)/C(C#N)=C1\c2c([nH]c(=S)[nH]c2=O)Oc2ccc3ccccc3c21" ?
inactive

How did this test come out for "CCCC(=O)NC1=C(Cl)C(=O)c2ccccc2C1=O" ?
inactive

How did this test come out for "CC(C)(C)OC(=O)N1CCc2[nH][nH]c(=O)c2C1" ?
inactive

* * *

Tested on: SN12C
experimentalProtocol: NCI tumour cell line growth inhibition, 48 h
Activity calls are given as the source filed them. No stated cut-off is given here; in the data, active = GI50 up to about 1.1 µM and inactive = higher.
Select the matching outcome among active, inactive

Answered cases to consult:
molecule	group
Clc1ccc(CSc2ncnc3c2ncn3C2CCCCO2)cc1 (centres undefined)	inactive
CCOC(=O)N1CCN(P(=O)(Nc2ccc3[nH]c(NC(=O)OC)nc3c2)Oc2ccccc2)CC1 (centres undefined)	inactive
O=C1C(Br)=C(c2ccccc2)O/C1=C/C(=O)c1ccc(Br)cc1	inactive

How did this test come out for CCOC(=O)C(NC(=O)c1ccccc1)(c1ccc(S(=O)(=O)Nc2onc(C)c2C)cc1)C(F)(F)F (centres undefined) ?
inactive

How did this test come out for "CCOC(=O)c1nc2ccc(C(F)(F)F)cc2nc1NCc1cc(OC)c(OC)c(OC)c1" ?
inactive

How did this test come out for CC1C2(C)OC(=N)C(C#N)(C(c3ccco3)O2)C1(C#N)C#N (centres undefined) ?
inactive

* * *

Tested on: ACHN
experimentalProtocol: NCI tumour cell line growth inhibition, 48 h
Where a name gives a salt, the structure may show the parent alone. The source made the active and inactive calls. No stated cut-off is given here; in the data, active = GI50 up to about 1.1 µM and inactive = higher. Residues, ends and D or L forms follow the SMILES beside them. *: point of attachment. Boc = CC(C)(C)OC(=O)*
Select the matching outcome among active, inactive

compound	group
COC(=O)c1cccc(C)c1C1CN=NC12Cc1c(ccc(C)c1C)C2=O (stereo unspecified)	inactive
CCCCCCCC/C=C(\Br)C(O)C(Br)Br (stereo unspecified)	inactive
C[C@]12CCC(=O)C=C1CC[C@@H]1[C@@H]2C(=O)C[C@@]2(C)[C@H]1CC[C@]2(O)C(=O)CO	inactive

How did this test come out for "Nc1cc(-c2ccc(Cl)cc2)nn1-c1nc2ccccc2nc1-c1ccccc1" ?
inactive

How did this test come out for CC(C)(C)OC(=O)NC(Cc1ccc(O)cc1)C(=O)NC(CCCCN)C(=O)O (stereo not drawn) (Boc-Tyr-Lys-OH; configuration not given here) ?
inactive

How did this test come out for CC/C(C)=C1\CCC(CN(C)C)C1=O (stereo unspecified) ?
inactive

How did this test come out for "C=C1CCCC(C)(C)[C@H]1C/C=C1\CCOC1=O" ?
inactive

How did this test come out for "Oc1ccc(Cc2nccc3cc(O)c(O)cc23)cc1O" ?
inactive

How did this test come out for COc1ccc(C2SCC(=O)N2c2ccc(-c3ccc(-n4c(-c5ccccc5)nc5ccccc5c4=O)cc3)cc2)cc1 (stereo unspecified) ?
inactive

How did this test come out for CCN1CCC(O)(C(C(=O)O)c2ccccc2)CC1 (stereo unspecified) ?
inactive

How did this test come out for "COS(C)(=O)=O" ?
inactive

How did this test come out for COc1nc(C#CCC(C)O)nc(OC)n1 (stereo unspecified) ?
inactive

How did this test come out for "CN1CN(c2ccccc2)C2(CCN(CCCN(C)c3ccc(F)cc3)CC2)C1=O" ?
inactive

How did this test come out for "O=C1/C(=C/c2cccnc2)SC(=S)N1Cc1ccco1" ?
inactive

How did this test come out for "O=C(OC[C@H]1C[C@H]2C(=O)CCC[C@H]2O1)c1ccccc1" ?
inactive

How did this test come out for NC(=O)CCC(NC(=O)c1c2ccccc2nc2ccccc12)C(=O)O (stereo unspecified) ?
inactive

How did this test come out for "O=C1O/C(=C\c2ccc(O)c(Br)c2)C(c2ccc(O)cc2)=C1Cl" ?
inactive

How did this test come out for Clc1ccc(CSc2ncnc3c2ncn3C2CCCCO2)cc1 (stereo unspecified) ?
inactive

How did this test come out for CC(NC(C)(C)C)C(=O)c1cccc(Cl)c1 (stereo unspecified) [BUPROPION HYDROCHLORIDE] ?
inactive

How did this test come out for "CC(=O)O/N=C1\C=Cc2c(no[n+]2[O-])C1=O" ?
inactive

How did this test come out for O=CC(O)C(O)C(O)C(O)C(=O)NCCCCCCCCCCCCNC(=O)C(O)C(O)C(O)C(O)C=O (stereo unspecified) ?
inactive

Provenance of the data: ChEMBL document CHEMBL1201862
